targetEntity: Akt1 (Homo sapiens)
Construct: unspecified tag, removed (detagged) (cleaved yes); purchased SignalChem and Proteros (Akt1); Merck Millipore (PDK1) 14-452 (PDK1); none given for Akt1
testProtocol: Akt activation assay (PDK1-mediated activation, LANCE Ultra crosstide TR-FRET), Akt1
Type: biochemical
reportedConditions: read-out: Biological Assay 1 IC50 (nM) Akt1
IC50 overview

Fill in the blank: the reported IC50 of `CCC(=O)N(CC)[C@H]1CC[C@H](CC(=O)Nc2cc(-c3ccccc3)c(-c3ccc([C@]4(N)C[C@](C)(O)C4)cc3)nn2)CC1` is ____.
> 14000 nM

Others:
Would you mind telling me what IC50 value was observed for `NC1(c2ccc(-c3nnc(NC(=O)C[C@H]4CC[C@H](N5CCOC5=O)CC4)cc3-c3ccccc3)cc2)CCC1` ?
7200 nM

Returns the measured IC50 for the input compound. Input: `N[C@]1(c2ccc(-c3nnc(NC(=O)C[C@H]4CC[C@H](N5CCCC5=O)CC4)cc3-c3ccccc3)cc2)C[C@@H](F)C1`
> 30000 nM

Name the recorded IC50 for `CC(C)(N)c1ccc(-c2ncc(NC(=O)C[C@H]3CC[C@H](N4CCOC4=O)CC3)cc2-c2ccccc2)cc1` .
> 30000 nM

Fill blank: measured IC50 of the compound `NC1(c2ccc(-c3cnc(NC(=O)C[C@H]4CC[C@H](N5CCOC5=O)CC4)cc3-c3ccccc3)cc2)CC1` is ____.
> 30000 nM

Query: IC50; subject: `NC1(c2ccc(-c3ncc(NC(=O)C[C@H]4CC[C@H](N5CCOCC5)CC4)cc3-c3ccsc3)cc2)CCC1`
9000 nM

Which IC50 is listed for `CC(=O)N(C)[C@H]1CC[C@H](CC(=O)Nc2cc(-c3ccccc3F)c(-c3ccc([C@]4(N)C[C@](C)(O)C4)cc3)cn2)CC1` ?
20000 nM

So what does the record say about IC50 for `NC1(c2ccc(-c3ncc(NC(=O)C[C@H]4CC[C@H](N5CCOC5=O)CC4)cc3-c3ccccc3)cc2)CCC1` ?
4100 nM

Name the recorded IC50 for `COC(=O)N(C)[C@H]1CC[C@H](CC(=O)Nc2cc(-c3ccccc3)c(-c3ccc([C@]4(N)C[C@](C)(O)C4)cc3)cn2)CC1` .
> 6500 nM

* * *

targetEntity: p-Akt1 in LNCaP cells (Homo sapiens)
Construct: SureFire assays to detect cellular p-Akt1, p-Akt2 and p-Akt3 levels in WM115 cells (Akt2/3) and LNCaP cells (Akt1); endogenous in cells; host or cells: LNCaP (ECACC 89110211)
Sequence (P31749 whole entry): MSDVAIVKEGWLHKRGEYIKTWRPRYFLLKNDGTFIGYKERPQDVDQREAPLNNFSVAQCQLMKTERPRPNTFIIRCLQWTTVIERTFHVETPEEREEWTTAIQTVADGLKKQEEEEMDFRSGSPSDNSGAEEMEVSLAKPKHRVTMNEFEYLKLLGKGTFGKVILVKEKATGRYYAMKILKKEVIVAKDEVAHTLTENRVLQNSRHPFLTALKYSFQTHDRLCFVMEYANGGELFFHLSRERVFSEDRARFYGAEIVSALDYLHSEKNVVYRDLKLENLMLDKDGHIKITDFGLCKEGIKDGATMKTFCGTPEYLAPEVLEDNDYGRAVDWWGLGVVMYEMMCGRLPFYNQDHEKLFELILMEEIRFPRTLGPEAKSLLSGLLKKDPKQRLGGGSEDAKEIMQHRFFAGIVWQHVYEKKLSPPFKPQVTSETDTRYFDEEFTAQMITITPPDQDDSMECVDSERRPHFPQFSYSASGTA
testProtocol: Phospho-Akt cellular SureFire assay, p-Akt1 in LNCaP cells
Format: cell-based
reportedConditions: read-out: Biological Assay 2 IC50 (nM) Akt1 LNCaP
readout: IC50 (nM)

P. CC(=O)N(C)[C@H]1CC[C@H](CC(=O)Nc2cnc(-c3ccc([C@]4(N)C[C@H](F)C4)cc3)c(-c3ccccc3)c2)CC1 [Example 32]
Q. CCCC(=O)N[C@H]1CC[C@H](CC(=O)Nc2cnc(-c3ccc(C4(N)CC4)cc3)c(-c3ccccc3)c2)CC1 [Example A41]
Identify the entry with the smaller IC50: P or Q . Lab note: record the label of whichever item you select.
Q
(Q: 3600 nM, P: 6900 nM)

* * *

targetEntity: p-Akt2 in WM115 cells (Homo sapiens)
Construct: SureFire assays to detect cellular p-Akt1, p-Akt2 and p-Akt3 levels in WM115 cells (Akt2/3) and LNCaP cells (Akt1); endogenous in cells; host or cells: WM115 (ECACC 91061232), insulin-stimulated
Sequence (P31751 whole entry): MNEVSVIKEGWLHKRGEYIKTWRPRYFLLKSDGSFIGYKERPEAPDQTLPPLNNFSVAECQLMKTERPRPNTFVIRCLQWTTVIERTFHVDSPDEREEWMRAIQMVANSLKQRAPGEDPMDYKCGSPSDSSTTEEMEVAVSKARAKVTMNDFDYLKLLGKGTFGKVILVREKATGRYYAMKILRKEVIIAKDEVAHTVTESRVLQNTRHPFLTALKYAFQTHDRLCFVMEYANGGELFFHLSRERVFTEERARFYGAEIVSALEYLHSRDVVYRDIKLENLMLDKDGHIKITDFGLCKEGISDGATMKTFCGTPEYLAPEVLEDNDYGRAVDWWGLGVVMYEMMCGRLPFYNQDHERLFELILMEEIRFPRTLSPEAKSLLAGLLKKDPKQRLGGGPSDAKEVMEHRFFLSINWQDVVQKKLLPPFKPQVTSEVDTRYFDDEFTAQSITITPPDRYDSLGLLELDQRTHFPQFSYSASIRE
testProtocol: Phospho-Akt cellular SureFire assay, p-Akt2 in WM115 cells
Assay type: cell-based
reportedConditions: insulin stimulated, read-out: Biological Assay 2 IC50 (nM) Akt2 WM115
readout: IC50 (nM)

GET /values?readout=IC50&item= CCC(=O)N(C)[C@H]1CC[C@H](CC(=O)Nc2cc(-c3ccccc3)c(-c3ccc(C(C)(C)N)cc3)nn2)CC1 [Example A84]
7100

What IC50 value was documented for this compound, CCC(=O)N(C)[C@H]1CC[C@H](CC(=O)Nc2cc(-c3ccsc3)c(-c3ccc([C@]4(N)C[C@](C)(O)C4)cc3)nn2)CC1 [Example 91] ?
900

# lookup: IC50 of N[C@]1(c2ccc(-c3ncc(NC(=O)C[C@H]4CC[C@H](N5CCOC5=O)CC4)cc3-c3ccccc3)cc2)C[C@@H](F)C1 [Example 78]
810

# input compound: NC1(c2ccc(-c3ncc(NC(=O)[C@@H](F)C4CCN(S(=O)(=O)C5CC5)CC4)cc3-c3ccccc3)cc2)CCC1 [Example 50] ; wanted: its IC50
6800

Any idea what its IC50 is? The compound is CC(C)C(=O)N(C)[C@H]1CC[C@H](CC(=O)Nc2cnc(-c3ccc(C(C)(C)N)cc3)c(-c3ccccc3)c2)CC1 [Example 4]
7400

Find the recorded IC50 belonging to CCC(=O)N(C)[C@H]1CC[C@H](CC(=O)Nc2cc(-c3ccccc3F)c(-c3ccc(C4(N)CCC4)cc3)cn2)CC1 [Example A102] and report it.
2300

May I ask what IC50 has been recorded for CCC(=O)N(C)[C@H]1CC[C@H](CC(=O)Nc2cnc(-c3ccc(C(C)(C)N)cc3)c(-c3ccccc3)c2)CC1 [Example A95] ?
3100

Query (compound): NC1(c2ccc(-c3ncc(NC(=O)C[C@H]4CC[C@H](N5CCCCC5=O)CC4)cc3-c3ccsc3)cc2)CCC1 [Example A14] ; field requested: IC50
3200

Please look up its IC50: CC(C)C(=O)N(C)[C@H]1CC[C@H](CC(=O)Nc2cnc(-c3ccc([C@]4(N)C[C@](C)(O)C4)cc3)c(-c3ccccc3)c2)CC1 [Example 99]
390

// lookup IC50 for COC(=O)N(C)[C@H]1CC[C@H](CC(=O)Nc2cnc(-c3ccc(C4(N)CCC4)cc3)c(-c3ccsc3)c2)CC1 [Example A68]
7400

I. CN([C@H]1CC[C@H](CC(=O)Nc2cnc(-c3ccc(C(C)(C)N)cc3)c(-c3ccccc3)c2)CC1)S(C)(=O)=O [Example A25]
II. CN(C1CCC(CC(=O)Nc2cnc(-c3ccc(C(C)(C)N)cc3)c(-c3ccccc3)c2)CC1)C1(C)COC1 (stereo not shown) [Example 35]
Which of the two gives a bigger number for IC50: I or II ? Select an item and report its label.
II

* * *

targetEntity: Akt1 (Homo sapiens)
Construct: unspecified tag, removed (detagged) (cleaved yes); purchased SignalChem and Proteros (Akt1); Merck Millipore (PDK1) 14-452 (PDK1); none given for Akt1
testProtocol: Akt activation assay (PDK1-mediated activation, LANCE Ultra crosstide TR-FRET), Akt1
Assay type: biochemical
reportedConditions: read-out: Biological Assay 1 IC50 (nM) Akt1
readout: IC50 (nM)

Which value of IC50 has been reported for `COC(=O)N(C(C)C)[C@H]1CC[C@H](CC(=O)Nc2cc(-c3ccccc3)c(-c3ccc([C@]4(N)C[C@](C)(O)C4)cc3)nn2)CC1` in the records?
8900

Sample `Cc1nncn1[C@H]1CC[C@H](CC(=O)Nc2cnc(-c3ccc(C4(N)CCC4)cc3)c(-c3ccccc3)c2)CC1` — what was its IC50?
1500

Field request: IC50 | item: `CCC(=O)N(C(C)C)[C@H]1CC[C@H](CC(=O)Nc2cc(-c3ccccc3)c(-c3ccc([C@]4(N)C[C@](C)(O)C4)cc3)nn2)CC1`
3200

# query: IC50 of entry `CC(=O)N(C)[C@H]1CC[C@H](CC(=O)Nc2cnc(-c3ccc([C@@H](C)N)cc3)c(-c3ccccc3)c2)CC1`
12000

Query (compound): `C[C@]1(O)C[C@@](N)(c2ccc(-c3cnc(NC(=O)C[C@H]4CC[C@H](N5CCCC5=O)CC4)cc3-c3ccccc3)cc2)C1` ; field requested: IC50
3100

Sample `CC(=O)N[C@H]1CC[C@H](CC(=O)Nc2cnc(-c3ccc(C4(N)CC(F)(F)C4)cc3)c(-c3ccccc3)c2)CC1` — what was its IC50?
8300

A. CCN(C(=O)OC)[C@H]1CC[C@H](CC(=O)Nc2cc(-c3ccccc3)c(-c3ccc([C@]4(N)C[C@](C)(O)C4)cc3)nn2)CC1
B. CCOC(=O)N(C)[C@H]1CC[C@H](CC(=O)Nc2cnc(-c3ccc([C@]4(N)C[C@](C)(O)C4)cc3)c(-c3ccccc3)c2)CC1
C. COC(=O)N(C)[C@H]1CC[C@H](CC(=O)Nc2cnc(-c3ccc([C@]4(N)C[C@](C)(O)C4)cc3)c(-c3ccccc3)c2)CC1
D. CC(=O)N(C(C)C)[C@H]1CC[C@H](CC(=O)Nc2cnc(-c3ccc(C4(N)CCC4)cc3)c(-c3ccccc3)c2)CC1
// smallest IC50 at index 0, largest at the end I'd appreciate it if you listed the labels in the requested order.
C, B, D, A
